Test system: Plasmodium falciparum
protocol_details: Calibr Malaria Delayed Death Assay SOP
Assay type: functional, organism-based
test_conditions: Plasmodium falciparum
Response field label: string, one of class 1 (IC50 strictly below 900 nM) or class 0.

1. CN(C)CCN(C)C(=O)Cn1cccc2cc(-c3ccc(F)cc3)nc1-2    class 1
2. CCC[C@H]1CN(c2nc(CO)cs2)C[C@@H]1NC(=O)C1(COC)CC1    class 0
3. Cc1cccc(CNC(CN2CCN(C)CC2)c2ccccc2)c1 (centres undefined)    class 1
4. Cl.OC1(c2ccc(F)cc2)CCN(Cc2ccccc2N2CCCC2)CC1    class 1
5. CC(C)Oc1ncnc2c1CCN(Cc1ccco1)CC2.O=C(O)C(F)(F)F    class 0
6. COCCN(C)Cc1cc(Cl)ccc1OCC(O)CN1CCCCCC1 (centres undefined)    class 0
7. COc1ccccc1C1(NCc2c(C)nc3c(C)cccn23)CCCC1.Cl    class 1
8. CCC(CNC(=O)CNC(C)=O)Oc1cccc(F)c1 (centres undefined)    class 0
9. CC(C)N1CCC(NCc2cccnc2N(C)Cc2ccccc2)CC1    class 1
10. Cl.Fc1cccc(F)c1Cn1c(C2CCCNC2)cc2cccnc21 (centres undefined)    class 0
11. NCC1CCN(C2CCN(c3ccc(-c4ccco4)cc3)CC2)C1 (centres undefined)    class 1
12. CN(C)[C@@H]1CCN(c2ncc(F)cn2)[C@H]1Cc1ccccc1.O=C(O)C(F)(F)F.O=C(O)C(F)(F)F    class 1
13. OC[C@@H]1CCCN1c1nccc(-c2c[nH]nc2-c2ccncc2)n1    class 1
14. Cc1cccc(Nc2cccc(C3CCCN(Cc4ncc[nH]4)C3)n2)n1 (centres undefined)    class 1
15. CCN1CCC2(CC1)CC(NCc1cccc(C)n1)c1ccccc1O2.O=C(O)C(F)(F)F.O=C(O)C(F)(F)F.O=C(O)C(F)(F)F (centres undefined)    class 1
16. NC1(C(=O)NCC2CCCN(Cc3ccccc3F)C2)CCCC1 (centres undefined)    class 1
17. CN(Cc1ccoc1)C(=O)C1(Oc2ccc(Cl)cc2)CCNCC1    class 0
18. CCCn1ccnc1CN1CCCC1c1ccccn1 (centres undefined)    class 1
19. CN1CCC(O)(CNCc2ccc(F)c(C(F)(F)F)c2)CC1    class 1
20. Cn1cc(CN2CCCC(CCc3ccc(F)cc3)C2)cn1 (centres undefined)    class 0
21. Cc1cccc(C)c1Nc1noc2c1CN(C(=O)c1c[nH]nc1C)CC2    class 1
22. CN1CCN(CC(NCc2ccc(F)c(F)c2)c2ccccc2)CC1 (centres undefined)    class 1
23. Cn1ccnc1CNC1CCCOc2c1ccc1ccccc21 (centres undefined)    class 0
24. Cl.Fc1cccc(F)c1Cn1c(C2CCNCC2)cc2cccnc21    class 1
25. Fc1ccc2c(C3=CCN(Cc4nnc(C5CCC5)o4)CC3)c[nH]c2c1    class 0
26. NCC(c1ccccc1)N1CCc2sccc2C1 (centres undefined)    class 1
27. Brc1cccc(C2(CNCc3cc[nH]c3)CCOCC2)c1    class 1
28. CC1CCCCN1C(=O)c1coc(COc2cccc3cnccc23)n1 (centres undefined)    class 1
29. COc1ccc(C(O)CN2CC(n3nc(C)cc3C)C2)cc1 (centres undefined)    class 0
30. CCN1CCN(C[C@@H]2CN(c3ncc(Cl)cc3F)C[C@@H]2CO)CC1    class 1
31. Clc1ccc(C2(CNC3=NCCN3)CCCC2)cc1.I    class 1
32. Cc1cn2c(n1)C(CNCC1=Cc3cc(Cl)ccc3OC1)CCC2 (centres undefined)    class 0
33. CC(O)CN1CCC(CNCc2cccc(Cl)c2)CC1 (centres undefined)    class 1
34. Cc1cc(C)c2cc(CNC3CCCCC3)c3nn(C)c(=O)n3c2c1    class 0
35. COCCN1CCC2(CC1)CC(NCc1ccc(C)s1)c1ccccc12.O=C(O)C(F)(F)F.O=C(O)C(F)(F)F (centres undefined)    class 1
36. O=C(O)C(F)(F)F.c1ccc(C[C@H]2CN(C3CCOCC3)CC[C@H]2OCC2CC2)cc1    class 1
37. Cc1cc(C)cc(CN2C[C@H]3COC[C@H](N4CCN(C)CC4)[C@H]3C2)c1.O=C(O)C(F)(F)F.O=C(O)C(F)(F)F.O=C(O)C(F)(F)F    class 1
38. NCC1Cc2cc(-c3nccc(N4CCC(O)CC4)n3)cc(F)c2O1 (centres undefined)    class 1
39. COc1cccc(CNc2cc(C)nc(-c3ccncc3)n2)c1OC    class 1
40. I.c1ccc(Sc2ccc3c(c2)OCO3)c(CNC2=NCCN2)c1    class 1
41. NC(=O)CN1CCC(Nc2ccnc3ccc(Cl)cc23)CC1    class 1
42. Cc1cccc(OC(C)C(=O)NCC2(N(C)C)CCCC2)c1 (centres undefined)    class 1
43. CC(NCC1CCN(CCO)CC1)c1cccc(Cl)c1 (centres undefined)    class 1
